- target of assay: Voltage-gated inwardly rectifying potassium channel KCNH2 (Homo sapiens, UniProt Q12809)
- Sequence (Q12809 whole entry): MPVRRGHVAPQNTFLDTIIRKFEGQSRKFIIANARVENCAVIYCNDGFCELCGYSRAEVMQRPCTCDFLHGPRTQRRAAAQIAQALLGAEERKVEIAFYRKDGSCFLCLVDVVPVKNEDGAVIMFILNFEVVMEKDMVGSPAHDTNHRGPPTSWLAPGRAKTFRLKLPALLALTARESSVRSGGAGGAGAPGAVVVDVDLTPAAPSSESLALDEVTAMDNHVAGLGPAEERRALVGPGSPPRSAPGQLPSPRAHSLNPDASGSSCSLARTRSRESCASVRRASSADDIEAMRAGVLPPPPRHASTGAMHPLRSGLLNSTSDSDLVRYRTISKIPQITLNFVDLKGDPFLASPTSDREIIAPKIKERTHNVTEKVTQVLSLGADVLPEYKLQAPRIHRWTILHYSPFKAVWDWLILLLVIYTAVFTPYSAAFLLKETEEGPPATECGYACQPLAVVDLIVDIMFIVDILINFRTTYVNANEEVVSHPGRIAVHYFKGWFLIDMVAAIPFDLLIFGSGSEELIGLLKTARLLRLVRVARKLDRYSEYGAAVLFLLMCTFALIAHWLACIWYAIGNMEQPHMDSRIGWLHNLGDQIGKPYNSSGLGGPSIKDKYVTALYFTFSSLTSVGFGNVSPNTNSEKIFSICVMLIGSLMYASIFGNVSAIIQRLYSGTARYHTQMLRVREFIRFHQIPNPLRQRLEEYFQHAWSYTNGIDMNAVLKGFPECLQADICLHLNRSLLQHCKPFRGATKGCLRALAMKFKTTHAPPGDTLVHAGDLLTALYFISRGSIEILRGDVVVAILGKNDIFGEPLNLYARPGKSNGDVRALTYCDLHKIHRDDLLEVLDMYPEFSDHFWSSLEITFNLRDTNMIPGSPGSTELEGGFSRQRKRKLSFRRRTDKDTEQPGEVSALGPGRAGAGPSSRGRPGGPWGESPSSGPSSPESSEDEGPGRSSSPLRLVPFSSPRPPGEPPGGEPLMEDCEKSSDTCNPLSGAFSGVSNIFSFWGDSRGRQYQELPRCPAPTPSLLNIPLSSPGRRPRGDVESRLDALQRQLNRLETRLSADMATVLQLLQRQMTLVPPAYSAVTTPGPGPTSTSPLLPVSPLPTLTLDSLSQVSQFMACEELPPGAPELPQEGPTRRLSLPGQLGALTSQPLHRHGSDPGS
parameter measured: pIC50
One number for each entry, as −log10 of the molar value.

>>> df
                         chemical_structure  obs_value
0  COc1cnc2ccc(=O)n(CCN3CCC(NCc4ccc(Cl)c(Cl)c4)CC3)c2c1       5.88

// moving on: another record for pIC50
# input Given `O=C1COc2ccc(CNC3CCN(CCn4c(=O)ccc5ccc(Oc6ccccn6)nc54)CC3)nc2N1` , state its recorded pIC50.
# output 3.81

###

- procedure text: Lipophilicity, logP of compound
- Type: physicochemical
- run parameters: octanol/water
For each entry below, report its logP value.
Numbers only.

Here's what some known entries look like.
In [3]: df
Out[3]:
                         chemical_structure  obs_value
0  COc1ccc2nccc(NC(=O)C3CCN(CCc4ccc(OC(F)(F)F)cc4)CC3)c2n1          4
1  COc1ccc2nccc(NC(=O)C3CCN(CCc4ccc(F)cc4F)CC3)c2n1        2.3
2  COc1ccc2nccc(NC(=O)C3CCN(CCc4cccc(C(F)(F)F)c4)CC3)c2n1        2.9
3  COc1ccc2nccc(NC(=O)C3CCN(CCc4c(F)cccc4F)CC3)c2n1        2.3
4  COc1ccc2nccc(NC(=O)C3CCN(CCc4cccc(F)c4)CC3)c2n1        2.1
5  COc1ccc2nccc(NC(=O)C3CCN(CCc4cccc(F)c4F)CC3)c2n1        2.3
6  COc1ccc2nccc(NS(=O)(=O)C3CCN(CCc4ccc(C(F)(F)F)cc4)CC3)c2n1        2.4
7  COc1ccc2cccc(NC(=O)C3CCN(CCc4ccc(C(F)(F)F)cc4)CC3)c2n1        3.6
8  COc1ccc2nccc(NC(=O)CC3CCN(Cc4ccc(C(F)(F)F)cc4)CC3)c2n1        2.8
9  COc1ccc2nccc(NC(=O)C3CCN(CCc4ccc(C(F)(F)F)cc4)CC3)c2n1        2.9

Hi! Can you tell me logP for each of these molecules?
1. COc1ccc2nccc(NC(=O)C3CCN(CCc4ccc(C(F)(F)F)cc4)CC3)c2c1
2. COc1ccc(CCN2CCC(C(=O)Nc3ccnc4ccc(OC)nc34)CC2)cc1
3. COc1ccc2nccc(NC(=O)C3CCN(CCc4ccc(C(F)(F)F)c(F)c4)CC3)c2n1
4. COc1ccc2nccc(NC(=O)C3CCN(CCc4ccc(F)c(F)c4)CC3)c2n1

# output
1: 3; 2: 1.9; 3: 3.1; 4: 2.3

Hi! Can you tell me logP for each of these molecules?
1. COc1ccc2nccc(NC(=O)[C@H]3CC[C@H](NCc4ccc(C(F)(F)F)cc4)CC3)c2n1
2. COc1ccc2nccc(NC(=O)C3CCN(CCc4cc(F)cc(F)c4)CC3)c2n1
3. COc1ccc2nccc(NC(=O)C3CCN(CCc4ccccc4F)CC3)c2n1
4. O=C(Nc1cccc2ccc(Cl)nc12)C1CCN(CCc2ccc(C(F)(F)F)cc2)CC1

# output
3.3
2.3
2.1
3.9

Hi! Can you tell me logP for each of these molecules?
1. COc1ccc2nccc(NC(=O)C3CCN(CCc4ccc(F)cc4)CC3)c2n1
2. O=c1ccc2ncc(=O)n3c2n1C[C@H]3CN1CCC(NCc2cc3c(cn2)OCCC3)CC1
3. COc1ccc2nccc(NC(=O)C3(C)CCN(CCc4ccc(C(F)(F)F)cc4)CC3)c2n1
4. COc1ccc2nccc(NC(=O)C3CCN(CCc4ccc(Cl)cc4)CC3)c2c1

# output
[2.1, 0.1, 3.3, 2.8]

# input Given `COc1ccc2nccc(NC(=O)C3CCN(CCc4ccc(Cl)cc4)CC3)c2n1` , state its recorded logP.
# output 2.6

// provenance: ChEMBL document CHEMBL5038674
